These entries and their values trace back to patent US12036226B2.

Test: Phase 1 study of pharmacokinetics and safety of imeglimin in subjects with renal impairment compared to normal renal function
Assay type: in vivo, human
Settings: human, plasma, po, 500 mg, 500 mg bid oral, Day 8, Part 1 CKD Stage 3 (moderate renal impairment; N = 6), geometric mean; read-out: Vz/F
property: Vd/F (L)

>>> print(df.to_string())
                                compound  observedresult
0  C[C@H]1N=C(N(C)C)N=C(N)N1 [imeglimin]             922

---

Assay: Phase 1 study of pharmacokinetics and safety of imeglimin in subjects with renal impairment compared to normal renal function
Type: in vivo, human
Conditions: human, urine, po, 500 mg, 500 mg bid oral, Day 8, CKD Stage 2 (mild renal impairment) (N = 4), geometric mean (CV %); read-out: CLR
Protocol: An open-label, parallel-group, multi-center, multiple oral dose study to investigate the pharmacokinetics of imeglimin in subjects with renal impairment compared to subjects with normal renal function was completed. In this study, a total of 51 subjects received imeglimin at the daily dose of 1000 mg, administered either as 1000 mg QD (once a day) or 500 mg bid (twice a day) during 8 days. […] Measurement of the urine to plasma ratio of creatinine using 24 hours urine sampling was calculated (CLCrea). […]
property: CL renal (mL/min)

>>> print(df.to_string())
                    molecule  valueunits  observedresult
0  C[C@H]1N=C(N(C)C)N=C(N)N1      mL/min             323

---

Assay: Phase 1 study of pharmacokinetics and safety of imeglimin in subjects with renal impairment compared to normal renal function
Format: in vivo, human
Conditions: human, plasma, po, 500 mg, 500 mg bid oral, Day 8, Part 1 normal renal function (N = 8), geometric mean; read-out: Cmin
Experimental: An open-label, parallel-group, multi-center, multiple oral dose study to investigate the pharmacokinetics of imeglimin in subjects with renal impairment compared to subjects with normal renal function was completed. In this study, a total of 51 subjects received imeglimin at the daily dose of 1000 mg, administered either as 1000 mg QD (once a day) or 500 mg bid (twice a day) during 8 days. […] Measurement of the urine to plasma ratio of creatinine using 24 hours urine sampling was calculated (CLCrea). […]
property: concentration at 8 day (ng/mL)

>>> print(df.to_string())
                    molecule                property  observedresult
0  C[C@H]1N=C(N(C)C)N=C(N)N1  concentration at 8 day             202

---

Assay: Phase 1 study of pharmacokinetics and safety of imeglimin in subjects with renal impairment compared to normal renal function
Type: in vivo, human
Conditions: human, plasma, po, 1000 mg, 1000 mg QD oral, Day 8, CKD stage 2 (mild renal impairment; N = 5), geometric mean
property: half-life (h)

                    molecule  observedresult
0  C[C@H]1N=C(N(C)C)N=C(N)N1              15

---

Experiment: Phase 1 study of pharmacokinetics and safety of imeglimin in subjects with renal impairment compared to normal renal function
Type: in vivo, human
Conditions: human, plasma, po, 1000 mg, 1000 mg QD oral, Day 8, normal renal function (N = 8), geometric mean
property: half-life (h)

>>> print(df.to_string())
                                molecule  observedresult
0  C[C@H]1N=C(N(C)C)N=C(N)N1 [imeglimin]            16.4

---

Assay: Phase 1 study of pharmacokinetics and safety of imeglimin in subjects with renal impairment compared to normal renal function
Assay type: in vivo, human
Conditions: human, plasma, po, 500 mg, 500 mg bid oral, Day 8, Part 1 CKD Stage 2 (mild renal impairment; N = 4), geometric mean; read-out: Cav
property: concentration at 8 day (ng/mL)

>>> print(df.to_string())
                    molecule  valueunits  observedresult
0  C[C@H]1N=C(N(C)C)N=C(N)N1       ng/mL             921

---

Assay: Phase 1 study of pharmacokinetics and safety of imeglimin in subjects with renal impairment compared to normal renal function
Assay type: in vivo, human
Conditions: human, urine, po, 500 mg, 500 mg bid oral, Day 8, CKD Stage 4 (severe renal impairment) (N = 5), geometric mean (CV %); read-out: CLR
property: CL renal (mL/min)

>>> print(df.to_string())
                    molecule  property  observedresult
0  C[C@H]1N=C(N(C)C)N=C(N)N1  CL renal             140

---

Assay: Phase 1 study of pharmacokinetics and safety of imeglimin in subjects with renal impairment compared to normal renal function
Type: in vivo, human
Conditions: human, plasma, po, 500 mg, 500 mg bid oral, Day 8, Part 1 normal renal function (N = 8), geometric mean; read-out: Cav
property: concentration at 8 day

>>> df
                    molecule  observedresult
0  C[C@H]1N=C(N(C)C)N=C(N)N1       616 ng/mL

---

Experiment: Phase 1 study of pharmacokinetics and safety of imeglimin in subjects with renal impairment compared to normal renal function
Assay type: in vivo, human
Details: human, plasma, po, 1000 mg, 1000 mg QD oral, Day 8, CKD Stage 3 (moderate renal impairment; N = 6), geometric mean
property: half-life (h)

In [3]: df
Out[3]:
                                molecule  observedresult
0  C[C@H]1N=C(N(C)C)N=C(N)N1 [imeglimin]            23.4

---

Assay: Phase 1 study of pharmacokinetics and safety of imeglimin in subjects with renal impairment compared to normal renal function
Type: in vivo, human
Conditions: human, plasma, po, 500 mg, 500 mg bid oral, Day 8, Part 1 CKD Stage 3 (moderate renal impairment; N = 6), geometric mean; read-out: AUC0-τ
property: AUC (ng·h/mL)

>>> print(df.to_string())
                    molecule  observedresult
0  C[C@H]1N=C(N(C)C)N=C(N)N1           17200

---

Experiment: Phase 1 study of pharmacokinetics and safety of imeglimin in subjects with renal impairment compared to normal renal function
Assay type: in vivo, human
Settings: human, plasma, po, 500 mg, 500 mg bid oral, Day 8, Part 2 normal renal function (N = 6), geometric mean
property: half-life (h)

>>> print(df.to_string())
                    molecule   property  observedresult
0  C[C@H]1N=C(N(C)C)N=C(N)N1  half-life              15

---

Assay: Phase 1 study of pharmacokinetics and safety of imeglimin in subjects with renal impairment compared to normal renal function
Assay type: in vivo, human
Settings: human, plasma, po, 500 mg, 500 mg bid oral, Day 8, Part 2 CKD Stage 4 (severe renal impairment; N = 5), geometric mean
property: Cmax (ng/mL)

In [3]: df
Out[3]:
                    molecule  property  valueunits  observedresult
0  C[C@H]1N=C(N(C)C)N=C(N)N1      Cmax       ng/mL            2860

---

Assay: Phase 1 study of pharmacokinetics and safety of imeglimin in subjects with renal impairment compared to normal renal function
Type: in vivo, human
Conditions: human, plasma, oral, post-dose, across renal function groups and time; read-out: Median Tmax
property: Tmax

>>> print(df.to_string())
                    molecule  property  observedresult
0  C[C@H]1N=C(N(C)C)N=C(N)N1      Tmax      3.5 to 5 h

---

Assay: Phase 1 study of pharmacokinetics and safety of imeglimin in subjects with renal impairment compared to normal renal function
Assay type: in vivo, human
Conditions: human, plasma, po, 1000 mg, 1000 mg QD oral, Day 8, normal renal function (N = 10), geometric mean
property: Cmax (ng/mL)

>>> df
                    molecule  valueunits  observedresult
0  C[C@H]1N=C(N(C)C)N=C(N)N1       ng/mL            1750

---

Experiment: Phase 1 study of pharmacokinetics and safety of imeglimin in subjects with renal impairment compared to normal renal function
Assay type: in vivo, human
Conditions: human, plasma, po, 500 mg, 500 mg bid oral, Day 8, Part 2 CKD Stage 4 (severe renal impairment; N = 5), geometric mean; read-out: Cav
property: concentration at 8 day (ng/mL)

                    molecule                property  valueunits  observedresult
0  C[C@H]1N=C(N(C)C)N=C(N)N1  concentration at 8 day       ng/mL            2070

---

Assay: Phase 1 study of pharmacokinetics and safety of imeglimin in subjects with renal impairment compared to normal renal function
Type: in vivo, human
Details: human, plasma, po, 500 mg, 500 mg bid oral, Day 8, Part 1 CKD Stage 2 (mild renal impairment; N = 4), geometric mean; read-out: Vz/F
property: Vd/F (L)

In [3]: df
Out[3]:
                    molecule  observedresult
0  C[C@H]1N=C(N(C)C)N=C(N)N1            1700
